Experiment: ATG_FoxO_CIS: Attagene CIS-FACTORIAL HepG2 Assay for human Forkhead box O (FoxO) (AID 2282943)
Conditions: HepG2 Attagene cis-reporter, FoxO element, mRNA; actives raise or lower the signal
Experimental: ATG_CIS is a cell-based, multiplexed-readout assay that uses HepG2, a human liver cell line, with measurements taken at 24 hours after chemical dosing in a 24-well plate.ATG_FoxO_CIS is one of 52 assay component(s) measured or calculated from the ATG_CIS assay. […] This assay endpoint, ATG_FoxO_CIS, was analyzed with bidirectional fitting relative to DMSO as the negative control and baseline of activity. […]
Activity calls are given as the source filed them. Rule for the calls: active = hit-call score of the fitted dose curve at least 0.9, where 1 is the maximum; inactive = score below 0.9.
Use one of these outcomes when replying: 1 = active, 0 = inactive

INSERT INTO assay_data (molecule, category) VALUES
  ('O=[N+]([O-])O', 0),
  ('CC(C)COP(=O)(OCC(C)C)OCC(C)C', 0),
  ('Cc1ccc(OP(=O)(Oc2ccc(C)cc2)Oc2ccc(C)cc2)cc1 (tested in a mixture with another compound)', 0),
  ('COC(C)(C)CCC[C@H](C)C/C=C/C(C)=C/C(=O)OC(C)C', 0),
  ('CN1C(=O)CCS(=O)(=O)C1c1ccc(Cl)cc1 (stereo not given)', 0),
  ('C=CCO', 0),
  ('N#CC(c1ccccc1)c1ccccc1', 0),
  ('CC(C)[C@@H](C(=O)O[C@@H](C#N)c1cccc(Oc2ccccc2)c1)c1ccc(Cl)cc1', 0),
  ('CC(Cc1ccc(C(C)(C)C)cc1)CN1C[C@@H](C)O[C@@H](C)C1 (stereo not given in full)', 0),
  ('C[N+](C)(C)CC(=O)[O-]', 0);

Request: Given [Cl][Sb]([Cl])[Cl] , state the outcome it received in this test.
Result: 0

Request: Would you mind doing C=CC(=O)OCCO as well?
Result: 0

Request: Would you mind doing O=C=Nc1ccccc1 as well?
Result: 0

Request: Would you mind doing O=S(=O)(c1ccccc1)c1ccccc1 as well?
Result: 0

Request: Would you mind doing CC(C)(Cl)Cl as well?
Result: 0
